Biological target: Msn1 (UniProt P22148)
Sequence: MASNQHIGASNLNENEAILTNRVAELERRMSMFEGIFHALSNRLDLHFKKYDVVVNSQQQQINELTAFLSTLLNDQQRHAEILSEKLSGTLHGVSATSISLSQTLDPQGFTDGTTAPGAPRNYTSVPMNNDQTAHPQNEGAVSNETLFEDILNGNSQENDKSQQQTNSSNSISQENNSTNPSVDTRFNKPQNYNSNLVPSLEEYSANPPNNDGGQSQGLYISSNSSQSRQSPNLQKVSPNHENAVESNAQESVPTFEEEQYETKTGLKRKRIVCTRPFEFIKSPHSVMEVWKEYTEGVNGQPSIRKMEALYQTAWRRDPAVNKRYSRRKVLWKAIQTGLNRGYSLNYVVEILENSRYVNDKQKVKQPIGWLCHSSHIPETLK
Experiment: PBM E-score (8-mer binding enrichment) (E-score (-0.5 to 0.5)); higher = stronger / more preferred TF binding
Details: protein concentration: 200 nM; construct: GST-full length
The full ranking holds about 33,000 sequences; the median of “E-score (-0.5 to 0.5)” is about -0.013, and the highest 2% start at about 0.3. The sample as a whole holds a higher share of the highest values than the screen did.
Parameter measured: PBM E-score
Numbers only.

Field: example entries. Status: answers known.
# Construct sequence, Assay target, Parameter measured, Data value
measured = [
    ("AGCTTGTC", "Msn1 (UniProt P22148)", "PBM E-score", 0.168),
    ("GTGTCCCA", "Msn1 (UniProt P22148)", "PBM E-score", 0.439),
    ("ACTCGACC", "Msn1 (UniProt P22148)", "PBM E-score", -0.143),
    ("ATGTCCCG", "Msn1 (UniProt P22148)", "PBM E-score", 0.474),
]

Then this sequence:
Hello, I am looking for reported PBM E-score with Msn1 (UniProt P22148) for "GGACTTAC" . Could you help?
0.273

* * *

Biological target: Msn1 (UniProt P22148)
Sequence: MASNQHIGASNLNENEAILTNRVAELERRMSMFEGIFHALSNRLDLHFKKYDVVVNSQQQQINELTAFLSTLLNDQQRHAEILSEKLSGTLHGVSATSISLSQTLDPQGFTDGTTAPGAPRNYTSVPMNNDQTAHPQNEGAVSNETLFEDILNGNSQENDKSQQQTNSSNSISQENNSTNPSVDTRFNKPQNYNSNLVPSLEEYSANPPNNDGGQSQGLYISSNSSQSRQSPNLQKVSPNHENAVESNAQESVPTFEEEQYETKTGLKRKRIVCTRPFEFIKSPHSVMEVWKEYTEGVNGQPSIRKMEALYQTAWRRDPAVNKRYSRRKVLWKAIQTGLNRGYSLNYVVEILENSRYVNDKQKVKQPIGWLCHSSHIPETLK
Experiment: PBM E-score (8-mer binding enrichment) (E-score (-0.5 to 0.5)); higher = stronger / more preferred TF binding
Settings: protein concentration: 200 nM; construct: GST-full length
Over roughly 33,000 sequences, “E-score (-0.5 to 0.5)” has its median near -0.013; the highest 2% begin near 0.3. For the sample, the highest values were picked, then their nearest neighbours and some sequences at random.
Parameter measured: PBM E-score

Take a look at these entries with their results.
# Construct sequence, Data value
measured = [
    ("CTTGTCAC", 0.296),
    ("TAAGTACA", 0.287),
    ("AATTGGAT", 0.157),
    ("CTTTGTGC", 0.058),
    ("AATTCAGG", 0.109),
]

Could I get PBM E-score for every one of these entries?
1. AAGAGGGT
2. ACGAATCG

1: -0.12; 2: 0.0506

Go through the items and report each one's PBM E-score.
1. CGATGTTC
2. ATAGTGGA
3. CCCTCGAG
4. AGAGTATG
5. CGATGTAC

1. -0.0457
2. 0.0789
3. -0.11
4. -0.143
5. 0.169

Look at each sequence and report its PBM E-score.
1. GGATGTCA
2. CCCTCTAC
3. CGACTTCA
4. ATAGTTTG
5. ATTGTCAC
6. AAGCTCCA
7. ATATGTCA

[0.305, -0.204, 0.0948, 0.274, 0.297, -0.219, 0.401]

Hi team, please reply with PBM E-score for each item in this list.
1. ATTTGTTA
2. TTGAGCAA
3. ACTATGAA
4. CCCGACAA
5. CTTTGTCA
6. CCGAACCC
7. AGACATCT

1: 0.087; 2: -0.0524; 3: 0.112; 4: 0.329; 5: 0.311; 6: -0.146; 7: 0.29

Batch: PBM E-score for all items listed.
1. ATGGGATG
2. ATTTGGAG
3. CTTTGTTC
4. ACGTGCCT
5. ATATGTTA
6. CTATGTGC

1. -0.177
2. -0.0358
3. 0.0603
4. -0.148
5. -0.0436
6. -0.0695

List reported PBM E-score for each of these sequences:
1. ACTGTCCC
2. GGAGACAC
3. GTTGTCCA
4. AGATGTCC
5. TCCGAGAA
6. CTATGTCC

1. 0.127
2. 0.0421
3. 0.381
4. 0.477
5. 0.346
6. 0.461

Record PBM E-score per entry; entries follow.
1. CGATGTCC
2. AAGCGCTC
3. GAGCCCGA
4. AACTAGAA

1. 0.436
2. -0.0777
3. -0.128
4. 0.062

Return reported PBM E-score values for all items listed beneath this line.
1. CTTTGTGA
2. AGCTACGA
3. CCCGAGAA
4. GCCGGTAA
5. ATTTGGAC

1: 0.126; 2: -0.11; 3: 0.0155; 4: 0.146; 5: 0.366

* * *

Record form. Attribute: PBM E-score. Fill in for each entry.
Target: Msn1 (UniProt P22148)
Sequence: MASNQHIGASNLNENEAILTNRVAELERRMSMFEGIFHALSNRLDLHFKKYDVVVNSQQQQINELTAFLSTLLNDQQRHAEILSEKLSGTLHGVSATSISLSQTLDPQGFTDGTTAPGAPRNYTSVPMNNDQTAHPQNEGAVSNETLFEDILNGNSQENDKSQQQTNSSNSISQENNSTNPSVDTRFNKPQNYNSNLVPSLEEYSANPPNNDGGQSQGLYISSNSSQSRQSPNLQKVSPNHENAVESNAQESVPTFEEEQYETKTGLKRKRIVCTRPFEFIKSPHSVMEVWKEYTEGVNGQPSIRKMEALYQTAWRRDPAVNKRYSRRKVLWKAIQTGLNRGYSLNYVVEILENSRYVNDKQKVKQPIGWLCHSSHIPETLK
Assay: PBM E-score (8-mer binding enrichment) (E-score (-0.5 to 0.5)); higher = stronger / more preferred TF binding
Details: protein concentration: 200 nM; construct: GST-full length
The full ranking holds about 33,000 sequences; the median of “E-score (-0.5 to 0.5)” is about -0.013, and the highest 2% start at about 0.3. Many of the other results were omitted from the sample, so the highest values are more common in it than they were.
Numbers only.

# Construct sequence, PBM E-score
data = [
    ("TGAGACCA", -0.0631),
    ("CCCCATAG", -0.15),
    ("GGTGGAGA", -0.396),
    ("GGTGGACA", 0.325),
    ("AGTGGACG", 0.212),
    ("CGTGGAAA", 0.0488),
]

Each sequence below has a recorded value; state its PBM E-score.
1. AGAGATTG
2. CTAGTACA
3. ACTTCCAG
4. AGAGTAAA
5. ATACACTG
6. AGTGGACA
7. GCTTTAGA

-0.0815
0.308
-0.219
-0.0814
0.0602
0.389
-0.0753

For each of the sequences below, note its PBM E-score.
1. GGTGGATA
2. GTAGCGCA

1: 0.0155; 2: -0.107

* * *

Molecular target: Msn1 (UniProt P22148)
Sequence: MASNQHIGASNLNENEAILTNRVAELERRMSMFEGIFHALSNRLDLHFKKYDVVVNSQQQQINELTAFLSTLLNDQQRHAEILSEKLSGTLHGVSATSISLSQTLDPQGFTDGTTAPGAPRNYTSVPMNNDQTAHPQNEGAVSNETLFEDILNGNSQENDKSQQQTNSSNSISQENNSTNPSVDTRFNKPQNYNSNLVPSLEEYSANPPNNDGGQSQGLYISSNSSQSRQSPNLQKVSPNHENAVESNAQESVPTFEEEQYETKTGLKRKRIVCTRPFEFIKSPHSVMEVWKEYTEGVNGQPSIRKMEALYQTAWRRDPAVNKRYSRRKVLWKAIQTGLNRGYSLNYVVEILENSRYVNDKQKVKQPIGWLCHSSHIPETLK
Assay: PBM E-score (8-mer binding enrichment) (E-score (-0.5 to 0.5)); higher = stronger / more preferred TF binding
Conditions: protein concentration: 200 nM; construct: GST-full length
In all, about 33,000 sequences were measured (“E-score (-0.5 to 0.5)”: median about -0.013, highest 2% from about 0.3 on). The sample holds the highest values, similar sequences and a random draw of the others, so the mix is not that of the screen.
Parameter measured: PBM E-score
Give bare numbers.

In the examples that follow, each entry is paired with its recorded PBM E-score.
# Construct sequence, PBM E-score
records = [
    ("AATCCTTC", -0.0471),
    ("CGTCTAAA", -0.0424),
    ("GTGGGACA", 0.455),
]

# map each sequence to its PBM E-score
1. CGGCCGAC
2. ATTTCCTG
3. GAGGACAC
4. ATGGGACA
5. GAGGACCC
6. CTAAGTCC
7. GACAAGCC

[0.194, 0.206, 0.398, 0.429, -0.218, -0.0602, 0.318]

Entry source: the supplement of paper PMC3334620
